Cited source for all entries: ChEMBL document CHEMBL3751707

Test system: Candida albicans
Experiment: Antifungal activity against Candida albicans ATCC 24433 after 24 to 36 hrs by broth microdilution method
Assay type: functional, organism-based
Would you kindly list IC50 for each of these molecules?
Numbers only; they are read as µg/mL.

Inquiry: Please look up its IC50: CC(Cc1ccc([Si](C)(C)C)cc1)CN1CCC(O)CC1 (stereo not given)
Reply text: 0.396

Inquiry: Please look up its IC50: CCC(C)(C)c1ccc(CC(C)CN2C[C@@H](C)O[C@@H](C)C2)cc1 (stereo not given in full)
Reply text: 0.028

Inquiry: Please look up its IC50: CCC(C)(C)c1ccc(CC(C)CN2CC[Si](C)(C)CC2)cc1 (stereo not given)
Reply text: 1.68

Inquiry: Please look up its IC50: CC(Cc1ccc(C(C)(C)C)cc1)CN1C[C@@H](C)O[C@@H](C)C1 (stereo not given in full)
Reply text: 0.21

Inquiry: Please look up its IC50: `OC(Cn1cncn1)(Cn1cncn1)c1ccc(F)cc1F`
Reply text: 0.73

Inquiry: Please look up its IC50: CC(Cc1ccc([Si](C)(C)C)cc1)CN1C[C@@H](C)O[C@@H](C)C1 (stereo not given in full)
Reply text: 0.043

Inquiry: Please look up its IC50: CNC1CCN(CC(C)Cc2ccc([Si](C)(C)C)cc2)CC1 (stereo not given)
Reply text: 1.55

Inquiry: Please look up its IC50: CC(Cc1ccc([Si](C)(C)C)cc1)CN1CCCCC1 (stereo not given)
Reply text: 0.12

Inquiry: Please look up its IC50: CC(Cc1ccc(C(C)(C)C)cc1)CN1CC[Si](C)(C)CC1 (stereo not given)
Reply text: 1.85

Inquiry: Please look up its IC50: CC(Cc1ccc([Si](C)(C)C)cc1)CN1CC[Si](C)(C)CC1 (stereo not given)
Reply text: 1.25
